Each recorded value in this set is attributed to patent US20240293512A1.

- tested.on: T1, human GIP receptor (human, UniProt P48546 22-466)
- T1 sequence (looked up): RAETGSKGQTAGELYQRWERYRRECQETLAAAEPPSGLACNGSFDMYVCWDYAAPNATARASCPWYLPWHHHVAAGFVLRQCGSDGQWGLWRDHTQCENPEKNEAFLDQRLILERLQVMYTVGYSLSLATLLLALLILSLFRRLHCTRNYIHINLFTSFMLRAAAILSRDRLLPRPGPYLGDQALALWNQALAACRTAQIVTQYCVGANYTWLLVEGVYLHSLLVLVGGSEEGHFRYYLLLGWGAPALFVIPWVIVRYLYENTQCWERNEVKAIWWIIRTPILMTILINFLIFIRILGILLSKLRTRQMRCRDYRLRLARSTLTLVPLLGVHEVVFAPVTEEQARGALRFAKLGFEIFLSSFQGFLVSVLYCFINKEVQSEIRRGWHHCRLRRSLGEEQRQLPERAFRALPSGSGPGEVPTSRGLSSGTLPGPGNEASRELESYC
- assay.comment: cell-based or functional assay
Bridge positions count the residues as written; N and C are the ends. Square brackets hold non-standard residues; d marks the D form. Ends that are not written are not given here. Aib = CC(C)(N)C(=O)O
measure: In vitro activity compared with native peptide (%) vs GIP (cAMP EC50)
Please respond with the number in % and leave the unit unwritten.

Observe how each entry below is paired with its result.
1. Y[Aib]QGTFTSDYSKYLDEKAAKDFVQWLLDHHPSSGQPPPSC (bridge 16-20) [triple agonist of SEQ ID NO: 77]; 35.5
2. Y[Aib]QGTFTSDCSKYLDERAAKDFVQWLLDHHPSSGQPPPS (bridge 16-20) [triple agonist of SEQ ID NO: 72]; 1.6

Req: Return the recorded In vitro activity compared with native peptide (%) vs GIP (cAMP EC50) value; entry: H[Aib]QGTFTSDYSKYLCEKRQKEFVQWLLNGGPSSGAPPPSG (bridge 16-20) [triple agonist of SEQ ID NO: 36]
Resp: 0.2
